Just for reference, paper PMC4761905 is where these values come from.

Target: norepinephrine transporter (NET) (Homo sapiens, UniProt P23975)
Sequence (P23975 whole entry): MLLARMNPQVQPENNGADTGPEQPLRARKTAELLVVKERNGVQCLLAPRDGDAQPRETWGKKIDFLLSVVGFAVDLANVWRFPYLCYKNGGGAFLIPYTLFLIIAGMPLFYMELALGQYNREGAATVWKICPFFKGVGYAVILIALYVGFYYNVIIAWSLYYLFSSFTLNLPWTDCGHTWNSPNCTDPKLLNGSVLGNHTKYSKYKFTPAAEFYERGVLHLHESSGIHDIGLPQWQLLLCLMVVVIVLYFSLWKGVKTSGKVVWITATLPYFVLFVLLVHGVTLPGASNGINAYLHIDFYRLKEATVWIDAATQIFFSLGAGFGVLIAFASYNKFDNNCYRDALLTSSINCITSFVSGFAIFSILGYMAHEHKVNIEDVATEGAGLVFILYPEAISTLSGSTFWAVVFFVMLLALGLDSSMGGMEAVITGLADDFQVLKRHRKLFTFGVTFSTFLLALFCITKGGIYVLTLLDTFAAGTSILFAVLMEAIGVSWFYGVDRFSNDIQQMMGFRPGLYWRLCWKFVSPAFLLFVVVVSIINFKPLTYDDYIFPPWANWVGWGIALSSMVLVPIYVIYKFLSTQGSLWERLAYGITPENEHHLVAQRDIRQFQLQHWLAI
Experiment: [3H]MPP+ uptake inhibition in HEK293 cells stably expressing human NET
measured.attribute: IC50 (µM)

INSERT INTO assay_data (compound, measured_attribute, recorded_result) VALUES
  ('Cc1csc(C[S+]([O-])C(c2ccccc2)c2ccccc2)n1 (racemic)', 'IC50', 160);
